B1: C20orf112 (parent)
chain: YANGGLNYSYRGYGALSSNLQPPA

Variants of: B1
Assay: protein stability index of a GFP-peptide fusion (GPS, HEK-293T) (PSI 1-6); higher = more stable;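 further: lentivirally expressed fusions sorted by FACS into six bins by GFP to DsRed ratio, PSI derived from sequencing read proportions per bin multiplied by bin number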
Details: c terminus: a fixed tail appended
Entries and their measured protein stability index follow.
OUTCOME MEASURE: protein stability index

A2W : 2.22
G14N : 2.87
G4L : 2.01
Y8L : 1.94
S18V : 1.73
G12V : 3.16
S17D : 1.87
A15V : 1.85
G12N : 1.93
L16F : 1.67
L6D : 1.9
N3F : 2.04
G5C : 2.2
L16P : 2.57
Q21A : 1.66
Y1W : 1.85
Y8S : 1.89
G5I : 2.21
R11V : 2.09
G14Q : 1.76
G14V : 2.4
P22E : 2.41
N19G : 1.42
P23C : 1.92
A15H : 2.62
A2V : 2.49
N7K : 1.81
S18W : 2.07
L20A : 1.79
G4D : 2.05
Y13C : 2.63
Y8W : 2.23
G4A : 2.81
Y13W : 2.96
R11N : 2.27
L6P : 2.5
Y1F : 1.86
Q21M : 1.71
Y10M : 2.97
S9N : 1.89
S17E : 2.23
G12Q : 1.86
S18M : 2.06
N19C : 2.05
G14A : 1.76
S18I : 1.78
